Mean edema thickness by entry:
- Tested on: carrageenan induced paw edema
- ASSAY PROTOCOL: Anti-inflammatory activity: acute carrageenan induced paw edema in rats
- Assay type: in vivo, Wister rats
- TEST SETTINGS: 2 h; 10 mg kg^−1 indomethacin mol equivalent, intraperitoneally; mean ± SE
RESULT TYPE: Mean edema thickness (mm)

1) CC[C@H](C)[C@H](NC(=O)OC(C)(C)C)C(=O)Oc1ccc(/C=C/C(=O)CC(=O)/C=C/c2ccc(OC(=O)[C@@H](NC(=O)OC(C)(C)C)[C@@H](C)CC)c(OC)c2)cc1OC [Compound 31] | 1.27
2) COc1cc(/C=C/C(=O)CC(=O)/C=C/c2ccc(OC(=O)CNC(=O)OC(C)(C)C)c(OC)c2)ccc1OC(=O)CNC(=O)OC(C)(C)C [Compound 22] | 1.16
3) COc1cc(/C=C/C(=O)CC(=O)/C=C/c2ccc(OC(=O)[C@@H](NC(=O)OC(C)(C)C)C(C)C)c(OC)c2)ccc1OC(=O)[C@@H](NC(=O)OC(C)(C)C)C(C)C [Compound 30] | 1.57

----------
- Tested on: gastric mucosa
- ASSAY PROTOCOL: Ulcerogenic liability (ulcer index)
- Type: in vivo, albino mice
- TEST SETTINGS: orally, three successive days, 10 mg/kg indomethacin mol equivalent
RESULT TYPE: % Incidence of ulcer divided by 10

1. COc1cc(/C=C/C(=O)CC(=O)/C=C/c2ccc(OC(=O)[C@H](CCSC)NC(=O)OCC3c4ccccc4-c4ccccc43)c(OC)c2)ccc1OC(=O)[C@H](CCSC)NC(=O)OCC1c2ccccc2-c2ccccc21 [Fmoc-Met-Cur] | 0
2. COc1cc(/C=C/C(=O)CC(=O)/C=C/c2ccc(OC(=O)CN)c(OC)c2)ccc1OC(=O)CN.Cl.Cl [HCl-Gly-Cur] | 0
3. COc1cc(/C=C/C(=O)CC(=O)/C=C/c2ccc(OC(=O)[C@@H](N)CCSC)c(OC)c2)ccc1OC(=O)[C@@H](N)CCSC.Cl.Cl [HCl-L-Met-Cur] | 0
4. COc1cc(/C=C/C(=O)CC(=O)/C=C/c2ccc(OC(=O)[C@H](CCSC)NC(=O)OCc3ccccc3)c(OC)c2)ccc1OC(=O)[C@H](CCSC)NC(=O)OCc1ccccc1 [Cbz-Met-Cur] | 3.33
5. CC(C)Cc1ccc(C(C)C(=O)O)cc1 (centres unmarked) [Ibuprofen, 2-(4-isobutylphenyl)propanoic acid, reference compound] | 3.33
6. COc1cc(/C=C/C(=O)CC(=O)/C=C/c2ccc(OC(=O)[C@@H](CCSC)NC(=O)OC(C)(C)C)c(OC)c2)ccc1OC(=O)[C@@H](CCSC)NC(=O)OC(C)(C)C [Boc-D-Met-Cur] | 0
7. COc1cc(/C=C/C(=O)CC(=O)/C=C/c2ccc(OC(=O)[C@@H](C)NC(=O)OCc3ccccc3)c(OC)c2)ccc1OC(=O)[C@@H](C)NC(=O)OCc1ccccc1 [Z-D-Ala-Cur] | 0
8. COc1cc(/C=C/C(=O)CC(=O)/C=C/c2ccc(OC(=O)[C@H](CCSC)NC(=O)OC(C)(C)C)c(OC)c2)ccc1OC(=O)[C@H](CCSC)NC(=O)OC(C)(C)C [Boc-L-Met-Cur] | 0
9. COc1cc(/C=C/C(=O)CC(=O)/C=C/c2ccc(OC(=O)CNC(=O)OCC3c4ccccc4-c4ccccc43)c(OC)c2)ccc1OC(=O)CNC(=O)OCC1c2ccccc2-c2ccccc21 [Fmoc-Gly-Cur] | 0
10. COc1cc(/C=C/C(=O)CC(=O)/C=C/c2ccc(OC(=O)[C@H](N)CCSC)c(OC)c2)ccc1OC(=O)[C@H](N)CCSC.Cl.Cl [HCl-D-Met-Cur] | 0
11. COc1cc(/C=C/C(=O)CC(=O)/C=C/c2ccc(OC(=O)[C@@H](CCSC)NC(=O)OCc3ccccc3)c(OC)c2)ccc1OC(=O)[C@@H](CCSC)NC(=O)OCc1ccccc1 [Z-D-Met-Cur] | 0
